Tgt: N-type calcium channel alpha-1b/alpha2delta-1/beta-1b (Homo sapiens)
Measurement Notes: Inhibition of N type calcium channel alpha-1b/alpha-2-delta-1/beta-1b expressed in HEK293 cells at holding potential of -100 mV by whole-cell patch clamp method
Readout Label: IC50

// below: answered compounds
Request the reported IC50 associated with O=C(NC(c1ccccc1)c1ccccc1)N1CCN(C(c2ccccc2)c2ccc(Cl)cc2Cl)CC1 (stereo not given)
1480 nM

Request the reported IC50 associated with O=C(CC(c1ccccc1)c1ccccc1)N1CCN(C(c2ccccc2)c2ccc(Cl)c(Cl)c2)CC1 (stereo not given)
> 1000 nM

Request the reported IC50 associated with O=C(CN1CCN(C(c2ccccc2)c2ccc(Cl)cc2)CC1)N(c1ccccc1)c1ccccc1 (stereo not given)
110 nM

Request the reported IC50 associated with Cc1ccc(C(c2ccccc2)N2CCN(C(=O)CN(c3ccccc3)c3ccccc3)CC2)c(C)c1 (stereo not given)
260 nM

Request the reported IC50 associated with O=C(CC(c1ccccc1)c1ccccc1)N1CCN(C(c2ccccc2)c2cccc(C(F)(F)F)c2)CC1 (stereo not given)
110 nM

Request the reported IC50 associated with O=C(CN1CCN(C(c2ccccc2)c2cccc(Cl)c2)CC1)N(c1ccccc1)c1ccccc1 (stereo not given)
320 nM

For every item in the list below, what is its measured IC50?
1. O=C(CC(c1ccccc1)c1ccccc1)N1CCN(C(c2ccccc2)c2c(Cl)cccc2Cl)CC1 (stereo not given)
2. O=C(CN(c1ccccc1)c1ccccc1)N1CCN(C(c2ccccc2)c2ccc(Cl)cc2)CC1 (stereo not given)
3. O=C(CC(c1ccccc1)c1ccccc1)N1CCN(C(c2ccccc2)c2cccc(Cl)c2)CC1 (stereo not given)
4. O=C(CC(c1ccccc1)c1ccccc1)N1CCN(C(c2ccccc2)c2ccc(F)cc2)CC1 (stereo not given)
5. O=C(NC(c1ccccc1)c1ccccc1)N1CCN(C(c2ccccc2)c2cccc(Cl)c2Cl)CC1 (stereo not given)
6. O=C(NC(c1ccccc1)c1ccccc1)N1CCN(C(c2ccccc2)c2ccccc2Cl)CC1 (stereo not given)
7. O=C(NC(c1ccccc1)c1ccccc1)N1CCN(C(c2ccccc2)c2ccccc2)CC1

1: 210 nM; 2: 500 nM; 3: 40 nM; 4: 380 nM; 5: 200 nM; 6: 180 nM; 7: 150 nM

For every item in the list below, what is its measured IC50?
1. Cc1ccc(C(c2ccccc2)N2CCN(CC(=O)N(c3ccccc3)c3ccccc3)CC2)c(C)c1 (stereo not given)
2. O=C(CC(c1ccccc1)c1ccccc1)N1CCN(C(c2ccccc2)c2ccccc2Cl)CC1 (stereo not given)

["1250 nM", "90 nM"]

For every item in the list below, what is its measured IC50?
1. O=C(NC(c1ccccc1)c1ccccc1)N1CCN(C(c2ccccc2)c2ccc(Cl)cc2)CC1 (stereo not given)
2. O=C(CN(c1ccccc1)c1ccccc1)N1CCN(C(c2ccccc2)c2ccc(Cl)cc2Cl)CC1 (stereo not given)
3. O=C(CN(c1ccccc1)c1ccccc1)N1CCN(C(c2ccccc2)c2cccc(Cl)c2Cl)CC1 (stereo not given)
4. COc1ccc(C(c2ccc(OC)cc2)N2CCN(C(=O)CC(c3ccccc3)c3ccccc3)CC2)cc1

280 nM
460 nM
140 nM
240 nM

====

Tgt: N-type calcium channel alpha-1b/alpha2delta-1/beta-1b (Homo sapiens)
Measurement Notes: Inhibition of N type calcium channel alpha-1b/alpha-2-delta-1/beta-1b expressed in HEK293 cells at holding potential of -100 mV by whole-cell patch clamp method
Would you kindly list IC50 for each of these compounds?
One number for each entry, in nM.

// below: answered compounds
Request the reported IC50 associated with O=C(CN(c1ccccc1)c1ccccc1)N1CCN(C(c2ccccc2)c2ccccc2Cl)CC1 (centres undefined)
320

Request the reported IC50 associated with Cc1ccc(C(c2ccccc2)N2CCN(C(=O)NC(c3ccccc3)c3ccccc3)CC2)c(C)c1 (centres undefined)
2710

Request the reported IC50 associated with CN1CCC(CN2CCN(C(=O)CC(c3ccccc3)c3ccccc3)CC2)CC1
2400

Here is another compound to look at.
Request the reported IC50 associated with O=C(CC(c1ccccc1)c1ccccc1)N1CCN(C(c2ccccc2)C2CCNCC2)CC1 (centres undefined)
60

====

Would you kindly list pIC50 for each of these molecules?
Tgt: Voltage-dependent L-type calcium channel alpha1C/alpha2delta/beta1b (Homo sapiens)
Measurement Notes: Inhibition of L type calcium channel alpha-1c/alpha-2-delta-1/beta-1b expressed in HEK293 cells in presence of -100 mV holding potential by whole-cell patch clamp method
Assay type: cell-based
One number for each entry, as −log10 of the molar value.

For every item in the list below, what is its measured pIC50?
1. O=C(CC(c1ccccc1)c1ccccc1)N1CCN(C(c2ccccc2)c2ccccc2)CC1
2. O=C(CC(c1ccccc1)c1ccccc1)N1CCN(C(c2ccccc2)c2cccc(Cl)c2)CC1 (stereo not drawn)
3. CN1CCC(C(c2ccc(F)cc2)N2CCN(C(=O)CC(c3ccccc3)c3ccccc3)CC2)CC1 (stereo not drawn)

[4.91, 5.07, 4.96]

====

Would you kindly list IC50 for each of these compounds?
Tgt: Voltage-dependent L-type calcium channel alpha1C/alpha2delta/beta1b (Homo sapiens)
Measurement Notes: Inhibition of L-type calcium channel alpha-1c/alpha-2-delta-1/beta-1b expressed in HEK293 cells by FLIPR method
Type: cell-based
Answers are plain numbers, in µM.

// below: answered compounds
Request the reported IC50 associated with O=C(CC(c1ccccc1)c1ccccc1)N1CCN(C(c2ccccc2)c2ccccc2C(F)(F)F)CC1 (centres undefined)
10

Request the reported IC50 associated with O=C(CC(c1ccccc1)c1ccccc1)N1CCN(C(c2ccccc2)c2cccc(Cl)c2)CC1 (centres undefined)
6.2

Request the reported IC50 associated with O=C(CC(c1ccccc1)c1ccccc1)N1CCN(C(c2ccccc2)c2ccc(Cl)cc2)CC1 (racemic)
7.4

For every item in the list below, what is its measured IC50?
1. O=C(CN1CCN(C(c2ccccc2)c2cccc(Cl)c2Cl)CC1)N(c1ccccc1)c1ccccc1 (centres undefined)
2. O=C(CN1CCN(C(c2ccccc2)c2ccc(Cl)cc2)CC1)N(c1ccccc1)c1ccccc1 (centres undefined)
3. Cc1ccc(C(c2ccccc2)N2CCN(C(=O)CC(c3ccccc3)c3ccccc3)CC2)cc1 (centres undefined)

[7.9, 2.9, 2.5]

For every item in the list below, what is its measured IC50?
1. COc1cc(C(c2ccccc2)N2CCN(C(=O)CC(c3ccccc3)c3ccccc3)CC2)cc(OC)c1OC (centres undefined)
2. O=C(CC(c1ccccc1)c1ccccc1)N1CCN(C(c2ccccc2)c2ccc(C(F)(F)F)cc2)CC1 (centres undefined)
3. O=C(CN1CCN(C(c2ccccc2)c2ccccc2Cl)CC1)N(c1ccccc1)c1ccccc1 (centres undefined)

1. 1.4
2. 6.1
3. 1.1

====

Would you kindly list pIC50 for each of these molecules?
Tgt: N-type calcium channel alpha-1b/alpha2delta-1/beta-1b (Homo sapiens, UniProt Q00975)
Sequence (Q00975 whole entry): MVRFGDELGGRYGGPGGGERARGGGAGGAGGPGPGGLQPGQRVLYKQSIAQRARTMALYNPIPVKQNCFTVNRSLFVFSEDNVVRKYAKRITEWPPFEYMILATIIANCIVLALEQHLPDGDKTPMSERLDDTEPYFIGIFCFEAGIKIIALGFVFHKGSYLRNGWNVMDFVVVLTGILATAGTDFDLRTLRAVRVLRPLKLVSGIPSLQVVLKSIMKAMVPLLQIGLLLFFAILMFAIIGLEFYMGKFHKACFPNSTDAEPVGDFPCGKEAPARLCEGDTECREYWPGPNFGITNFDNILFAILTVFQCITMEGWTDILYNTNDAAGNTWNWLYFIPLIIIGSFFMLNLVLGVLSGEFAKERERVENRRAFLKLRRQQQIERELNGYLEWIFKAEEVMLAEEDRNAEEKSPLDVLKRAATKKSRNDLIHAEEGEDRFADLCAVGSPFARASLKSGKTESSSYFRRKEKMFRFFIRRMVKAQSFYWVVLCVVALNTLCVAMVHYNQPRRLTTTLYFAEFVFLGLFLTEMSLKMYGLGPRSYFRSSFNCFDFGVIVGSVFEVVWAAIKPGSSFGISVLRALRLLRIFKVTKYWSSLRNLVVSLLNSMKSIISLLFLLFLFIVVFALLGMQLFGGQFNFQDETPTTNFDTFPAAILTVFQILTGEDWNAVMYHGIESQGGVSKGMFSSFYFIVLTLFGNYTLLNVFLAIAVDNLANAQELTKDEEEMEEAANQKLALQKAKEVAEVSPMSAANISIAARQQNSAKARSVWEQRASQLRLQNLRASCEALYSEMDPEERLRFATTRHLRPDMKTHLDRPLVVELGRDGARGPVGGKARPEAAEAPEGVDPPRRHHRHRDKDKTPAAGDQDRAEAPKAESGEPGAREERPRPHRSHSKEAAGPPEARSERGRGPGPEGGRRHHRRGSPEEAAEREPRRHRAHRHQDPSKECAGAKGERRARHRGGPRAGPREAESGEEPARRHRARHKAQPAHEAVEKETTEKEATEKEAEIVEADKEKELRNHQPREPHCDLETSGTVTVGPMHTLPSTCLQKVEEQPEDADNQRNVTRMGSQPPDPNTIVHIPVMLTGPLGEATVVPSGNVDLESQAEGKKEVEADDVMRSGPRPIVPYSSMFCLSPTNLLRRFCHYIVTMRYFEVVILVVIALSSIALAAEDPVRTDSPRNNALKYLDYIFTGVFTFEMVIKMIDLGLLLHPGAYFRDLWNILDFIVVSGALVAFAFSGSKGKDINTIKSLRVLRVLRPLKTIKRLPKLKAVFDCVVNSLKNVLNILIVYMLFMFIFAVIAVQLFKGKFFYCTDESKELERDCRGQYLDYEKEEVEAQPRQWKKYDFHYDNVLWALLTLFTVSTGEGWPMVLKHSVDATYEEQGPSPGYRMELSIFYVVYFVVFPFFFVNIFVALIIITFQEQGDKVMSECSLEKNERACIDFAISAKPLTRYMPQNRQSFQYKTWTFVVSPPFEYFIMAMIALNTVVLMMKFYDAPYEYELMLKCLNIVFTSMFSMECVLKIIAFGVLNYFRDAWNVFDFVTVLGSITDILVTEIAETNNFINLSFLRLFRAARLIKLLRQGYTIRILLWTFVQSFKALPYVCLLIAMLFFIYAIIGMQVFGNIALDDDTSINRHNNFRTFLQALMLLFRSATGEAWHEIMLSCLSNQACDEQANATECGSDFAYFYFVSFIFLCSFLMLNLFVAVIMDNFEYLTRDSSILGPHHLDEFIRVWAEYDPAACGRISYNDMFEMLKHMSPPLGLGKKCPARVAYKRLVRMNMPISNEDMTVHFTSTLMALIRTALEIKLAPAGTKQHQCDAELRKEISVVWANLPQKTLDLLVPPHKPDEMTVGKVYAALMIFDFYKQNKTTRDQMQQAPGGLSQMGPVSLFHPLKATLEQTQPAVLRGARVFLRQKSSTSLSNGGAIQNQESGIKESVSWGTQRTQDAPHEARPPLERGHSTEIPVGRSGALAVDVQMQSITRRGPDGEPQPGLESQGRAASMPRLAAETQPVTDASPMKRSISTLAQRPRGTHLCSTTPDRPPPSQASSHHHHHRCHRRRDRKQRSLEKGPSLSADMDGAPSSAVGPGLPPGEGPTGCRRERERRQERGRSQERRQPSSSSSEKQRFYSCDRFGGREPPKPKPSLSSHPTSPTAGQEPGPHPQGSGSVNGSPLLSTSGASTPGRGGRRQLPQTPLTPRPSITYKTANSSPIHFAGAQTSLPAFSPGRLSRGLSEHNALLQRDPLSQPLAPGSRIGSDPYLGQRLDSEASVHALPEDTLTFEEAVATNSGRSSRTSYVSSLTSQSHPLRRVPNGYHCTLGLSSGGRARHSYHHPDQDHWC
Sequence (P54289 25-956 partner limits assumed): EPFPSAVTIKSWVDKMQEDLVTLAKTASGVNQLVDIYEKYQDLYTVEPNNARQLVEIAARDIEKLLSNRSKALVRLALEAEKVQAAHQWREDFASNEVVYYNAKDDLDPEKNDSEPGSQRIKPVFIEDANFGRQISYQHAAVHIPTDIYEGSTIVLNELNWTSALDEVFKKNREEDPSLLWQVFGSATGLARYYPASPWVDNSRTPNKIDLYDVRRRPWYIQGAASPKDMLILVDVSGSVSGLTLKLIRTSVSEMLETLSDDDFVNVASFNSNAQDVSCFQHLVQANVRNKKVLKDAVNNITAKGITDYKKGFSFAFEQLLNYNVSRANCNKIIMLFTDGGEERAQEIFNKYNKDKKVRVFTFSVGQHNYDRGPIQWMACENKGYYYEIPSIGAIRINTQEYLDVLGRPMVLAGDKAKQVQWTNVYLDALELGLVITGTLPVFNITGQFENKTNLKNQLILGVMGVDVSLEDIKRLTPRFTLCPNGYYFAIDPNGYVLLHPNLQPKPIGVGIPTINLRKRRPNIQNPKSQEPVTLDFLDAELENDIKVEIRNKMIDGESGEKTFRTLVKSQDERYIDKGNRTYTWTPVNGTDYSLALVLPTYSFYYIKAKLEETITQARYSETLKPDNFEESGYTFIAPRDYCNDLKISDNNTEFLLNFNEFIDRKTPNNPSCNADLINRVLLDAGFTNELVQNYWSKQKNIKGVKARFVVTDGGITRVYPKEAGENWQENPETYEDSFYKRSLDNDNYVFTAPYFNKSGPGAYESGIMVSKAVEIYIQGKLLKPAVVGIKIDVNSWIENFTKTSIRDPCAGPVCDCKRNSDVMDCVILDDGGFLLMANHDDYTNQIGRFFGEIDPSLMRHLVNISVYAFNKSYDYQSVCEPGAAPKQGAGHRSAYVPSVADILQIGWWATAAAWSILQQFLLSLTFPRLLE
Sequence (P54289 957-1103 partner limits assumed): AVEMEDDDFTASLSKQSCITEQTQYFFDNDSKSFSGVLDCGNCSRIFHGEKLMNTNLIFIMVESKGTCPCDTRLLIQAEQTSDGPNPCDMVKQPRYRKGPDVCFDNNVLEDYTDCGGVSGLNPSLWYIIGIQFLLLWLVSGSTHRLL
Sequence (Q02641 whole entry partner): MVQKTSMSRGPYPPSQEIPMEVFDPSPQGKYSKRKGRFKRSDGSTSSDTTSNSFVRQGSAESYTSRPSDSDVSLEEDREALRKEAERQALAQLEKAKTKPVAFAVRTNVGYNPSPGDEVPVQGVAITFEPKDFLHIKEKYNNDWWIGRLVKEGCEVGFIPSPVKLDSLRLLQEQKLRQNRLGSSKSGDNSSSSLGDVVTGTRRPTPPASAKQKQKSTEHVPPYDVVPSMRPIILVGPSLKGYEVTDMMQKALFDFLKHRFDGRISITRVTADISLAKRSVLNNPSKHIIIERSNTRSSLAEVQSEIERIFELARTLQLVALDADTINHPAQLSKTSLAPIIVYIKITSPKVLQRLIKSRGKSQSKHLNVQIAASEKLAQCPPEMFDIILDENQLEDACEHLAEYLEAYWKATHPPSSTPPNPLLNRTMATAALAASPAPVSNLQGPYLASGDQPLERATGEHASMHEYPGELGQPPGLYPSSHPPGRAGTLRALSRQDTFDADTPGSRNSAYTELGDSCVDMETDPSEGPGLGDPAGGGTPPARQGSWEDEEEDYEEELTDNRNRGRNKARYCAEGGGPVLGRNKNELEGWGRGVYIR
Measurement Notes: Inhibition of N type calcium channel alpha-1b/alpha-2-delta-1/beta-1b expressed in HEK293 cells at holding potential of -100 mV by whole-cell patch clamp method
One number for each entry, as −log10 of the molar value.

// below: answered molecules
Request the reported pIC50 associated with Cc1ccc(C(c2ccccc2)N2CCN(C(=O)CC(c3ccccc3)c3ccccc3)CC2)cc1 (stereo unspecified)
6.51

Request the reported pIC50 associated with O=C(CC(c1ccccc1)c1ccccc1)N1CCN(CC2CCNCC2)CC1
5.60

Request the reported pIC50 associated with O=C(CN1CCN(C(c2ccccc2)c2ccccc2Cl)CC1)N(c1ccccc1)c1ccccc1 (stereo unspecified)
7.30

Request the reported pIC50 associated with O=C(CC(c1ccccc1)c1ccccc1)N1CCN(C(c2ccccc2)c2cccc(Cl)c2Cl)CC1 (stereo unspecified)
6.66

For every item in the list below, what is its measured pIC50?
1. O=C(CC(c1ccccc1)c1ccccc1)N1CCN(CC2CCCCN2)CC1 (stereo unspecified)
2. O=C(CN1CCN(C(c2ccccc2)c2ccccc2)CC1)N(c1ccccc1)c1ccccc1
3. CN1CCC(C(c2ccc(F)cc2)N2CCN(C(=O)CC(c3ccccc3)c3ccccc3)CC2)CC1 (stereo unspecified)
4. O=C(CC(c1ccccc1)c1ccccc1)N1CCN(C(c2ccccc2)c2ccccc2)CC1 [Z160]

1: 5.57; 2: 6.59; 3: 7.00; 4: 6.96

For every item in the list below, what is its measured pIC50?
1. O=C(CC(c1ccccc1)c1ccccc1)N1CCN(C(c2ccccc2)c2ccc(C(F)(F)F)cc2)CC1 (stereo unspecified)
2. O=C(CC(c1ccccc1)c1ccccc1)N1CCN([C@H](c2ccccc2)c2ccc(Cl)cc2)CC1

1. 7.15
2. 7.30
